test.system: Mitogen-activated protein kinase 10 (Homo sapiens, UniProt P53779)
Sequence (P53779 whole entry): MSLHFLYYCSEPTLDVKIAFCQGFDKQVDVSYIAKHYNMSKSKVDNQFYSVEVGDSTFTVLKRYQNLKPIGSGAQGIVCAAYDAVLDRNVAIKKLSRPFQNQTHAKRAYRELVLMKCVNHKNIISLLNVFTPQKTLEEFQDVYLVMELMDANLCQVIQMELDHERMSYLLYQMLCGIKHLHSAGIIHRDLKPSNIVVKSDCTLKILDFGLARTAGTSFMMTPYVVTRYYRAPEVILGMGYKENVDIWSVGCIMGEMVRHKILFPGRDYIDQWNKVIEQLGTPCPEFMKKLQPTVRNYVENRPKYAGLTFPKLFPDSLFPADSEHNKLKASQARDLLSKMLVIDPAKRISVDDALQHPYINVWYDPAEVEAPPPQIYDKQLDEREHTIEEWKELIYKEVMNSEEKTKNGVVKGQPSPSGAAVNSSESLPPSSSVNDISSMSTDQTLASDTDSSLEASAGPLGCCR
method.notes: Inhibition of JNK3 at 10 nM by spectrophotometric coupled-enzyme assay
measured.quantity: Ki (µM)

compound	rel	value.observed
CN(C)C(=O)c1cc(-c2n[nH]cc2-c2ccccc2)c[nH]1	>	4
O=C(NOCc1ccccc1)c1cc(-c2[nH]ncc2-c2cccc(Cl)c2)c[nH]1	=	2.9
O=C(NCc1ccc(F)c(F)c1)c1cc(-c2n[nH]cc2-c2cccc(Cl)c2)c[nH]1	=	0.79
O=C(NC(CO)c1ccc(Cl)cc1)c1cc(-c2n[nH]cc2-c2cccc(Cl)c2)c[nH]1 (configuration not stated)	=	2.5
O=C(NCCc1cccnc1)c1cc(-c2[nH]ncc2-c2cccc(Cl)c2)c[nH]1	>	4
O=C(N[C@H](C(=O)O)c1ccccc1)c1cc(-c2n[nH]cc2-c2cccc(Cl)c2)c[nH]1	>	4
COc1ccc(CNC(=O)c2cc(-c3n[nH]cc3-c3cccc(Cl)c3)c[nH]2)cc1	=	0.84
O=C(c1cc(-c2[nH]ncc2-c2cccc(Cl)c2)c[nH]1)N1CCCC1	=	1.8
CCN(C)C(=O)c1cc(-c2n[nH]cc2-c2cccc(Cl)c2)c[nH]1	>	4
O=C(NCC1CCCO1)c1cc(-c2[nH]ncc2-c2cccc(Cl)c2)c[nH]1 (configuration not stated)	=	2.7
NC(=O)[C@@H](NC(=O)c1cc(-c2[nH]ncc2-c2cccc(Cl)c2)c[nH]1)c1ccccc1	=	3.3
O=C(NC(CO)c1ccc(C(F)(F)F)cc1)c1cc(-c2n[nH]cc2-c2cccc(Cl)c2)c[nH]1 (configuration not stated)	=	2.7
O=C(NC1c2ccccc2CC1O)c1cc(-c2[nH]ncc2-c2cccc(Cl)c2)c[nH]1 (configuration not stated)	=	3.2
CNC(=O)[C@@H](NC(=O)c1cc(-c2[nH]ncc2-c2cccc(Cl)c2)c[nH]1)c1ccccc1	=	3.9
CCN1CCCC1CNC(=O)c1cc(-c2n[nH]cc2-c2cccc(Cl)c2)c[nH]1 (configuration not stated)	>	4
O=C(NC(CO)c1cccc(F)c1)c1cc(-c2[nH]ncc2-c2cccc(Cl)c2)c[nH]1 (configuration not stated)	=	3
O=C(NC(CO)c1ccc(F)cc1)c1cc(-c2n[nH]cc2-c2cccc(Cl)c2)c[nH]1 (configuration not stated)	>	4
C[C@H](NC(=O)c1cc(-c2n[nH]cc2-c2cccc(Cl)c2)c[nH]1)c1ccccc1	>	4
O=C(NC(CO)c1cc(Cl)cc(Cl)c1)c1cc(-c2n[nH]cc2-c2cccc(Cl)c2)c[nH]1 (configuration not stated)	=	3.4
O=C(N[C@@H](CO)c1ccc(F)c(Cl)c1)c1cc(-c2n[nH]cc2-c2cccc(Cl)c2)c[nH]1	>	4
O=C(N[C@H](CO)c1ccc(F)c(Cl)c1)c1cc(-c2n[nH]cc2-c2cccc(Cl)c2)c[nH]1	>	4
O=C(c1cc(-c2[nH]ncc2-c2cccc(Cl)c2)c[nH]1)N1CCc2ccccc2C1	>	4
O=C(N[C@H](CO)c1ccccc1)c1cc(-c2[nH]ncc2-c2cccc(Cl)c2)c[nH]1	=	2.8
CN(Cc1ccccc1)C(=O)c1cc(-c2[nH]ncc2-c2cccc(Cl)c2)c[nH]1	>	4
O=C(NC(CO)c1ccccc1F)c1cc(-c2[nH]ncc2-c2cccc(Cl)c2)c[nH]1 (configuration not stated)	=	3.1
C[C@@H](NC(=O)c1cc(-c2n[nH]cc2-c2cccc(Cl)c2)c[nH]1)c1ccccc1	=	3.1
O=C(NC(CO)c1ccc(F)c(F)c1)c1cc(-c2n[nH]cc2-c2cccc(Cl)c2)c[nH]1 (configuration not stated)	=	2.8
